Cited source: patent US4393228A

Listing: ID50 (amount of inhibitor for 50% inhibition) of selected compounds
Study target: papain (Carica papaya)
Construct: purchased Sigma Chem. Co
Sequence (P00784 134-345): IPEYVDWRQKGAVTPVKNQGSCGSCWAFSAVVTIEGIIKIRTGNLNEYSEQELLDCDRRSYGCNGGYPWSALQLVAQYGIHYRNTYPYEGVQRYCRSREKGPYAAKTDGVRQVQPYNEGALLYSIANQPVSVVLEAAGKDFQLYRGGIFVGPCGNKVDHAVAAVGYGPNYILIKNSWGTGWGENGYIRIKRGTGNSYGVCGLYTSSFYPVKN
Test: Papain inhibitory activity (milk casein digestion)
Format: biochemical
Condition description: papain 80 μg/ml 0.5 ml, cysteine, pH 6.8, 1% milk casein, 40° C., 10 minutes

Examples from the recorded data:
compound="O=C(O)C1OC1C(=O)OC1CC(Cl)CCC1Br (centres unmarked)" reported_measurement="0.07 γ"
compound="O=C(OCc1ccc(I)cc1Br)[C@H]1O[C@@H]1C(=O)OCc1ccc(I)cc1Br (relative stereo) [EP-119, di-2'-bromo-4'-iodobenzyl epoxysuccinate]" reported_measurement="3.00 γ"
compound="N=C(NCCC[C@H](NC(=O)C1OC1C(=O)OCc1ccccc1)C(=O)OCc1ccccc1)N[N+](=O)[O-] (some centres unmarked)" reported_measurement="4.63 γ"
compound="CCOC(=O)C1OC1C(=O)N[C@@H](CCCNC(C)=O)C(=O)OCc1ccccc1 (some centres unmarked)" reported_measurement="6.20 γ"
compound="O=C(OC1CC2CCC1C2)C1OC1C(=O)OC1CC2CCC1C2 (centres unmarked) [EP-55, dinorbornyl epoxysuccinate]" reported_measurement="0.28 γ"
compound="C=CCOC(=O)[C@H]1O[C@@H]1C(=O)O (relative stereo) [EP-140, allyl potassium epoxysuccinate]" reported_measurement="0.92 γ"

Per the record, CCOC(=O)[C@H]1O[C@@H]1C(=O)O (relative stereo) [EP-137, ethyl potassium epoxysuccinate] has ID50 (amount of inhibitor for 50% inhibition) of 2.08 γ

Per the record, O=C(O)[C@H]1O[C@@H]1C(=O)OCc1ccccc1 (relative stereo) [EP-143, benzyl potassium epoxysuccinate] has ID50 (amount of inhibitor for 50% inhibition) of 0.15 γ

Per the record, O=C(O)[C@H]1O[C@@H]1C(=O)OCc1ccccc1I (relative stereo) [EP-106, o-iodobenzyl potassium epoxysuccinate] has ID50 (amount of inhibitor for 50% inhibition) of 0.14 γ

Per the record, O=C(OCCC12CC3CC(CC(C3)C1)C2)[C@@H]1O[C@H]1C(=O)OCCC12CC3CC(CC(C3)C1)C2 (relative stereo) [EP-49, di-2-(1-adamantane)ethyl epoxysuccinate] has ID50 (amount of inhibitor for 50% inhibition) of 0.85 γ

Per the record, O=C(OCc1ccccc1Cl)[C@@H]1O[C@H]1C(=O)OCc1ccccc1Cl (relative stereo) [EP-107, di-o-chlorobenzyl epoxysuccinate] has ID50 (amount of inhibitor for 50% inhibition) of 0.15 γ

Per the record, O=C(O)[C@H]1O[C@@H]1C(=O)Oc1ccccc1 (relative stereo) [EP-136, phenyl hydrogen epoxysuccinate] has ID50 (amount of inhibitor for 50% inhibition) of 2.72 γ

###

Study target: papain (Carica papaya)
Construct: purchased Sigma Chem. Co
Test: Papain inhibitory activity (milk casein digestion)
Type: biochemical
Condition description: papain 80 μg/ml 0.5 ml, cysteine, pH 6.8, 1% milk casein, 40° C., 10 minutes
Listing: ID50 (amount of inhibitor for 50% inhibition) of selected molecules

molecule="O=C(O)[C@@H]1O[C@H]1C(=O)OCCC1CCCCC1 (relative stereo)" reported_measurement="0.08 γ"
molecule="O=C(O)C1OC1C(=O)OC1CCC(Cl)C1 (stereo not shown)" reported_measurement="0.07 γ"
molecule="O=C(O)[C@@H]1O[C@H]1C(=O)OCCC1CCCC1 (relative stereo)" reported_measurement="0.10 γ"
molecule="O=C(O)C1OC1C(=O)OC1CC2CCC1C2 (stereo not shown) [EP-56, norbornyl potassium epoxysuccinate]" reported_measurement="0.06 γ"
molecule="O=C(OCc1cccc2c(Br)cccc12)[C@@H]1O[C@H]1C(=O)OCc1cccc2c(Br)cccc12 (relative stereo)" reported_measurement="1.56 γ"

Per the record, O=C(O)C1OC1C(=O)OC1CCC(Br)C(Cl)C1 (stereo not shown) has ID50 (amount of inhibitor for 50% inhibition) of 0.12 γ

Per the record, O=C(OCc1ccco1)[C@@H]1O[C@H]1C(=O)OCc1ccco1 (relative stereo) [EP-77, di-2-furanmethyl epoxysuccinate] has ID50 (amount of inhibitor for 50% inhibition) of 0.77 γ

Per the record, O=C(O)C1OC1C(=O)OCC1CC=CCC1 (stereo not shown) has ID50 (amount of inhibitor for 50% inhibition) of 0.08 γ

Per the record, O=C(OCC1C=CCC1)C1OC1C(=O)OCC1C=CCC1 (stereo not shown) [EP-71, di-2-cyclopentenemethyl epoxysuccinate] has ID50 (amount of inhibitor for 50% inhibition) of 0.40 γ

Per the record, O=C(NCCC[C@H](NC(=O)C1OC1C(=O)OCc1ccccc1)C(=O)OCc1ccccc1)OCc1ccccc1 (stereo partly shown) has ID50 (amount of inhibitor for 50% inhibition) of 5.95 γ
